// reported pIC50 for each item listed
# SYSTEM: human full length PIK3KA Wild-type (p110α/p85α complex) (Homo sapiens, UniProt P42336)
# Construct: Recombinant, catalytically active human full length PIK3KA Wild-type and H1047R mutant were purchased; 6xHis (N); purchased EMD Millipore Sigma 14-602M
# TEST DETAILS: PI3K-Alpha Kinase (PIK3CA) biochemical activity, wild-type (ADP-Glo)
# TEST PARAMETERS: Soy PI lipid substrate, 20 uM ATP
pIC50: −log10 of the molar value.

COc1cccc(-c2nnc(-c3cc(=O)c4cc(C)cc(C(C)Nc5ccccc5C(=O)O)c4o3)o2)c1 (single isomer, unassigned; isomer 2) [Example 84] : 5.30 to 6.00
Cc1cc(C(C)Nc2ccccc2C(=O)O)c2oc(-c3ccc(S(C)(=O)=O)nc3)cc(=O)c2c1 (stereo not drawn) [Example 7] : < 5.00
Cc1cc(C(C)Nc2ccccc2C(=O)O)c2oc(-c3cnn(-c4ccc(C#N)cc4)c3)cc(=O)c2c1 (single isomer, unassigned) [Example 64] : 5.30 to 6.00
COc1ccc(-c2cc(=O)c3cc(C)cc(C(C)Nc4ccccc4C(=O)O)c3o2)cn1 (single isomer, unassigned; isomer 1) [Example 19] : < 5.00
Cc1cc(C(C)Nc2cccc(F)c2C(=O)O)c2oc(-c3ccccn3)cc(=O)c2c1 (single isomer, unassigned; isomer 2) [Example 111] : 5.30 to 6.00
Cc1cc(C(C)Nc2ccccc2C(=O)O)c2oc(-c3ccc(F)nc3)cc(=O)c2c1 (single isomer, unassigned; isomer 2) [Example 36] : 5.00 to 5.30

(Q) Sample CC(Nc1ccccc1C(=O)O)c1cc(C(F)(F)F)cc2c(=O)cc(-c3ccccn3)oc12 (single isomer, unassigned; isomer 1) [Example 76] — what was its pIC50?
(A) 5.00 to 5.30

(Q) Need pIC50 of Cc1cc(C(C)Nc2ccccc2C(=O)O)c2oc(-c3cncc(F)c3)c(C)c(=O)c2c1 (single isomer, unassigned; isomer 1) [Example 45] , thanks.
(A) 6.00 to 6.30

(Q) Which pIC50 is reported for this molecule? COc1ncc(-c2cc(=O)c3cc(C)cc(C(C)Nc4ccccc4C(=O)O)c3o2)cn1 (stereo not drawn) [Example 2]
(A) 5.00 to 5.30

(Q) Reported pIC50, molecule COc1ccc(-n2cc(-c3oc4c(C(C)Nc5ccccc5C(=O)O)cc(C)cc4c(=O)c3C)cn2)cc1 (single isomer, unassigned) [Example 69] : ____
(A) 6.00 to 6.30

###

# SYSTEM: human full length PIK3KA Wild-type (p110α/p85α complex) (Homo sapiens, UniProt P42336)
# Construct: Recombinant, catalytically active human full length PIK3KA Wild-type and H1047R mutant were purchased; 6xHis (N); purchased EMD Millipore Sigma 14-602M
# TEST DETAILS: PI3K-Alpha Kinase (PIK3CA) biochemical activity, wild-type (ADP-Glo)
# TEST PARAMETERS: Soy PI lipid substrate, 20 uM ATP
pIC50: −log10 of the molar value.
ENDPOINT: pIC50

COc1ccc(-c2cc(=O)c3cc(C)cc(C(C)Nc4ccccc4C(=O)O)c3o2)cn1 (stereo not shown) [Example 12] : 5.30 to 6.00

(Q) Hi! What's the reported pIC50 for Cc1cc(C(C)Nc2ccccc2C(=O)O)c2oc(-c3ccccn3)c(C)c(=O)c2c1 (single isomer, unassigned; isomer 1) on human full length PIK3KA Wild-type (p110α/p85α complex) (Homo sapiens, UniProt P42336)?
(A) 5.30 to 6.00

(Q) Test system human full length PIK3KA Wild-type (p110α/p85α complex) (Homo sapiens, UniProt P42336); read-out pIC50; what value for COc1ccccc1-n1cc(-c2oc3c(C(C)Nc4ccccc4C(=O)O)cc(C)cc3c(=O)c2C)cn1 (single isomer, unassigned) ?
(A) 5.30 to 6.00

(Q) Please provide the recorded pIC50 for Cc1cc(C(C)Nc2ccccc2C(=O)O)c2oc(-c3ccc(S(C)(=O)=O)nc3)cc(=O)c2c1 (single isomer, unassigned; isomer 2) [Example 40] , tested on human full length PIK3KA Wild-type (p110α/p85α complex) (Homo sapiens, UniProt P42336).
(A) < 5.00

(Q) Form field - read-out: pIC50; system: human full length PIK3KA Wild-type (p110α/p85α complex) (Homo sapiens, UniProt P42336); submitted item: Cc1cc(C(C)Nc2ccccc2C(=O)O)c2oc(-c3cncc(-n4cccn4)c3)c(C)c(=O)c2c1 (single isomer, unassigned)
(A) 5.30 to 6.00

(Q) Hello, I am looking for reported pIC50 with human full length PIK3KA Wild-type (p110α/p85α complex) (Homo sapiens, UniProt P42336) for Cc1cc(C(C)Nc2ccc(C(F)(F)F)cc2C(=O)O)c2oc(-c3cccnc3)c(C)c(=O)c2c1 (single isomer, unassigned; isomer 1) . Could you help?
(A) 5.30 to 6.00

(Q) Query the reported pIC50 for human full length PIK3KA Wild-type (p110α/p85α complex) (Homo sapiens, UniProt P42336); item: Cc1cc(C(C)Nc2ccccc2C(=O)O)c2oc(-c3cnn(-c4ccc5c(c4)OC(F)(F)O5)c3)cc(=O)c2c1 (single isomer, unassigned)
(A) < 5.00

(Q) Tell me reported pIC50 for Cc1cc(C(C)Nc2cccc(F)c2C(=O)O)c2oc(-c3cnn(-c4ccc(C#N)cc4)c3)cc(=O)c2c1 (single isomer, unassigned; isomer 2) [Example 113] , tested with human full length PIK3KA Wild-type (p110α/p85α complex) (Homo sapiens, UniProt P42336).
(A) 5.30 to 6.00

###

# SYSTEM: human full length PIK3KA H1047R mutant (p110α/p85α complex) (Homo sapiens, UniProt P42336, H1047R)
# Construct: Recombinant, catalytically active human full length PIK3KA Wild-type and H1047R mutant were purchased; 6xHis (N); purchased EMD Millipore Sigma 14-792M
# Sequence (P42336 whole entry H1047R): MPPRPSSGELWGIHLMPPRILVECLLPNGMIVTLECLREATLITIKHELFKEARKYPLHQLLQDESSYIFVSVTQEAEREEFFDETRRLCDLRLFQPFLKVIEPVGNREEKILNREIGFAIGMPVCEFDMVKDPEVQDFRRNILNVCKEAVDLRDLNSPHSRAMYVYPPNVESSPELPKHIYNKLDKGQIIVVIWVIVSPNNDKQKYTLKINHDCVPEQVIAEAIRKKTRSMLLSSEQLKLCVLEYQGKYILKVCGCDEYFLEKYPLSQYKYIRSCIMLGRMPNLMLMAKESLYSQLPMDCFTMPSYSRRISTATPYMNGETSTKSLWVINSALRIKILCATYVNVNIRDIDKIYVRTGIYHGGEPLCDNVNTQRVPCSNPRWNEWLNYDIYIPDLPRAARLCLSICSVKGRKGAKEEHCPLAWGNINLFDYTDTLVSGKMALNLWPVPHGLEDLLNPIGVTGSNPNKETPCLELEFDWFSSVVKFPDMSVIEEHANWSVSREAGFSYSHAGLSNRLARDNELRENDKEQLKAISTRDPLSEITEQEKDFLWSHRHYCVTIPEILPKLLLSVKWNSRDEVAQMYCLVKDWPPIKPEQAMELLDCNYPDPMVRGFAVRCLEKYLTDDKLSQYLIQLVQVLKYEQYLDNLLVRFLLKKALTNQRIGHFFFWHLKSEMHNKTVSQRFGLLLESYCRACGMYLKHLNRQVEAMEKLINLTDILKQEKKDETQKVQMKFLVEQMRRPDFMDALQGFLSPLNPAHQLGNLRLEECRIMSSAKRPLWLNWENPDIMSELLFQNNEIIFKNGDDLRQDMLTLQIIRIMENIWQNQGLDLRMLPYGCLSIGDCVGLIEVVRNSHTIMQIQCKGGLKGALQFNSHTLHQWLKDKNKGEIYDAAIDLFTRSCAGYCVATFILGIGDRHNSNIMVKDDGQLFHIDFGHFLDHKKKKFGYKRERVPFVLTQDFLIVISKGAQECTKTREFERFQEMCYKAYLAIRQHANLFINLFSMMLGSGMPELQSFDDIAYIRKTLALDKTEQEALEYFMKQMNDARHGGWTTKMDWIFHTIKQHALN
# Sequence (P27986 whole entry partner): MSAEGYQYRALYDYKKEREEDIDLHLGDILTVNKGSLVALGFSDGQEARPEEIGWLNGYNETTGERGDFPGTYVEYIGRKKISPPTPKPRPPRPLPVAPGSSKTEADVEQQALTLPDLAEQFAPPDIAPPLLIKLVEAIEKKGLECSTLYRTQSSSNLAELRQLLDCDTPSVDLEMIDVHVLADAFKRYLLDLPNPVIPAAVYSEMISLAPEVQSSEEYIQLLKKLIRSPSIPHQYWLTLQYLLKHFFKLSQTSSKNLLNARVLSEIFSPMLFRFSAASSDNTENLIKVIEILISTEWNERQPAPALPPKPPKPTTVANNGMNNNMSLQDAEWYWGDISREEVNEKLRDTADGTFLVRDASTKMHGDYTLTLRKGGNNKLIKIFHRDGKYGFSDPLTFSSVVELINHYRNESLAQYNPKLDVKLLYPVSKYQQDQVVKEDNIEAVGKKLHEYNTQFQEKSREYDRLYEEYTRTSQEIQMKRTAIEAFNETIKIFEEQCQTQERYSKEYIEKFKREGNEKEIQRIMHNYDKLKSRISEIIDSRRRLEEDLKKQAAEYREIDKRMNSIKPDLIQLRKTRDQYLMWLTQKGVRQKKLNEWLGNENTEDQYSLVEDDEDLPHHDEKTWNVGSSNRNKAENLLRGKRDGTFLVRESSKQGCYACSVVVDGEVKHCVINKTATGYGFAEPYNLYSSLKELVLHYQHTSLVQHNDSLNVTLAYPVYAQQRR
# TEST DETAILS: PI3K-Alpha Kinase (PIK3CA) biochemical activity, H1047R mutant (ADP-Glo)
# TEST PARAMETERS: Soy PI lipid substrate, 20 uM ATP
ENDPOINT: IC50

Some entries whose results are on file:
Cc1cc(C(C)Nc2ccccc2C(=O)O)c2oc(-c3ccc(F)nc3)cc(=O)c2c1 (stereo not shown) [Example 9] : < 500 nM
Cc1cc(C(C)Nc2ccccc2C(=O)O)c2oc(-c3ccc(F)cn3)cc(=O)c2c1 (stereo not shown) : < 500 nM

Below: the item to evaluate.
(Q) Any idea what its IC50 is? The compound is Cc1cc(C(C)Nc2ccccc2C(=O)O)c2oc(-c3cncc(F)c3)cc(=O)c2c1 (single isomer, unassigned)
(A) < 500 nM

###

# SYSTEM: human full length PIK3KA H1047R mutant (p110α/p85α complex) (Homo sapiens, UniProt P42336, H1047R)
# Construct: Recombinant, catalytically active human full length PIK3KA Wild-type and H1047R mutant were purchased; 6xHis (N); purchased EMD Millipore Sigma 14-792M
# TEST DETAILS: PI3K-Alpha Kinase (PIK3CA) biochemical activity, H1047R mutant (ADP-Glo)
# TEST PARAMETERS: Soy PI lipid substrate, 20 uM ATP
pIC50: −log10 of the molar value.
ENDPOINT: pIC50

Use the examples below as a reference point.
Cc1cc(C(C)Nc2ccccc2C(=O)O)c2oc(-c3cnn(-c4cccnc4)c3)cc(=O)c2c1 (single isomer, unassigned; isomer 1) [Example 49] : < 5.00
COc1ncc(-c2cc(=O)c3cc(C)cc(C(C)Nc4ccccc4C(=O)O)c3o2)cn1 (stereo not drawn) [Example 2] : > 6.30
Cc1cc(C(C)Nc2ccccc2C(=O)O)c2oc(-c3ccc(F)nc3)cc(=O)c2c1 (single isomer, unassigned; isomer 1) [Example 35] : < 5.00
Cc1cc(C(C)Nc2ccc(C(F)(F)F)nc2C(=O)O)c2oc(-c3cccnc3)c(C)c(=O)c2c1 (single isomer, unassigned; isomer 1) [Example 117] : > 6.30
Cc1cc(C(C)Nc2ccccc2C(=O)O)c2oc(-c3cnc(C#CC(C)(C)O)nc3)cc(=O)c2c1 (single isomer, unassigned) [Example 102] : 6.00 to 6.30
Cc1cc(C(C)Nc2ccccc2C(=O)O)c2oc(-c3cnn(-c4ccc(Cl)cc4)c3)cc(=O)c2c1 (single isomer, unassigned) [Example 106] : > 6.30
CC(Nc1ccccc1C(=O)O)c1cc(C(F)(F)F)cc2c(=O)cc(-c3cnn(-c4ccc(C#N)cc4)c3)oc12 (single isomer, unassigned; isomer 1) [Example 99] : 6.00 to 6.30
Cc1cc(C(C)Nc2ccccc2C(=O)O)c2oc(-c3cnn(-c4ccc(C#N)cc4)c3)cc(=O)c2c1 (single isomer, unassigned) [Example 64] : > 6.30
Cc1c(-c2ccccn2)oc2c(C(C)Nc3ccccc3C(=O)O)cc(F)cc2c1=O (single isomer, unassigned) [Example 68] : > 6.30
Cc1cc(C(C)Nc2ccccc2C(=O)O)c2oc(-c3nnc(-c4ccc(C#N)cc4)o3)cc(=O)c2c1 (single isomer, unassigned; isomer 2) [Example 90] : > 6.30

(Q) Fill in the blank: the reported pIC50 of Cc1cc(C(C)Nc2ccccc2C(=O)O)c2oc(-c3ccc(S(C)(=O)=O)nc3)cc(=O)c2c1 (stereo not drawn) [Example 7] is ____.
(A) > 6.30

(Q) // pIC50 lookup, key: Cc1cc(C(C)Nc2ccccc2C(=O)O)c2oc(-c3ccc(C(F)(F)F)nc3)cc(=O)c2c1 (single isomer, unassigned; isomer 2) [Example 38]
(A) > 6.30

Entry source: patent US20230014445A1
